system: OVCAR-5; assay: NCI tumour cell line growth inhibition, 48 h
Activity calls are given as the source filed them. Rule as the data show it: active = GI50 up to about 1.1 µM and inactive = higher.
outcome measure: GI50

compound=O=c1[nH]c(=S)[nH]c(-c2ccccc2)c1Cc1c(O)ccc2ccccc12 observed_result="33.4 µM (inactive)"
compound=O=C1c2ccccc2S(=O)(=O)c2cc(-c3nn[nH]n3)ccc21 observed_result="> 100 µM (inactive)"
compound=COC(=O)C#CC1(O)C=CC(=O)C=C1 observed_result="1.42 µM (inactive)"
compound=CN(C)CCNC(=O)c1cccc2nc3c(ccc4ccccc43)nc12 observed_result="4.55 µM (inactive)"
compound="Cn1c(N)nc2c(nc(OCc3ccccc3)n2C2OC(CO)C(O)C2O)c1=O (stereo not given)" observed_result="> 100 µM (inactive)"
compound=O=C(O)CCc1ccc(-c2ccccc2)[nH]1 observed_result="> 100 µM (inactive)"
compound=CCOC(=O)c1sc2nc(SC)nc(Nc3ccc4c(c3)OCCCO4)c2c1N observed_result="> 100 µM (inactive)"
compound="c1ccc(CN[C@]23C4C5CC6C7C5C2C7[C@@](NCc2ccccc2)(C64)N3Cc2ccccc2)cc1 (stereo not given in full)" observed_result="> 100 µM (inactive)"
compound="N#CC(/C(=N/NC(=N)N)C(=O)Nc1ccccc1[N+](=O)[O-])c1nc(-c2ccc([N+](=O)[O-])cc2)cs1 (stereo not given)" observed_result="> 100 µM (inactive)"
compound=CC1=Nc2sc3c(c2C2=NCCN12)CCCC3 observed_result="30.7 µM (inactive)"

Values were extracted from ChEMBL document CHEMBL1201862.
